molecular target: human Peroxisome Proliferator-activated Receptor alpha (PPARa), PPARA (gene 5465); assay: ATG_PPARa_TRANS: Attagene TRANS-FACTORIAL HepG2 Assay for human Peroxisome Proliferator-activated Receptor alpha (PPARa) (AID 2283001)
Results filed as inconclusive are left out. Activity calls are given as the source filed them. Rule for the calls: active = hit-call score of the fitted dose curve at least 0.9, where 1 is the maximum; inconclusive = response in the unintended direction; inactive = score below 0.9.
// allowed return values: active, inactive

CCCCCCCCSC(=O)Oc1cc(Cl)nnc1-c1ccccc1: inactive
Oc1c(I)cc(I)cc1I: active
O=Cc1cccc(Oc2ccccc2)c1: inactive

Problem: What classification did O=C/C=C/c1ccccc1 end up with in this test?
Solution: inactive

Problem: What classification did CC(C)(OO)c1ccccc1 end up with in this test?
Solution: inactive

Problem: What classification did O=C(Cc1ccccc1)c1ccccc1 end up with in this test?
Solution: inactive

Problem: What classification did Clc1ccc(COC(Cn2ccnc2)c2ccc(Cl)cc2Cl)cc1 (stereo not given) end up with in this test?
Solution: active

Problem: What classification did COC(=O)Cc1ccccc1 end up with in this test?
Solution: inactive

Problem: What classification did Cc1cc(Cl)ccc1O[C@H](C)C(=O)O end up with in this test?
Solution: inactive

Problem: What classification did COP(=O)(OC)O/C(=C\Cl)c1cc(Cl)c(Cl)cc1Cl end up with in this test?
Solution: active

Problem: What classification did C[C@@H]1C[C@@H]([C@H](O)CC2CC(=O)NC(=O)C2)C(=O)[C@@H](C)C1 end up with in this test?
Solution: inactive

Problem: What classification did C=C(C)C(=O)[O][Sn]([CH2]CCC)([CH2]CCC)[CH2]CCC end up with in this test?
Solution: inactive

Problem: What classification did CN(C)N=O end up with in this test?
Solution: inactive

====

read-out: Interleukin-8 (IL8), CXCL8 (gene 3576); test: BSK_MyoF_IL8: BioMAP Diversity Plus: MyoF Assay for Interleukin-8 (IL8) Biomarker Activity (AID 2284261); conditions: primary human lung fibroblasts
Activity calls are given as the source filed them. How the source made its calls: active means hit-call score of the fitted dose curve at least 0.9, where 1 is the maximum; inactive means score below 0.9.
// allowed return values: label 1 for active, label 0 for inactive

Here are 10 compounds together with their reported answers.
COP(=S)(OC)Oc1ccc(Sc2ccc(OP(=S)(OC)OC)cc2)cc1: label 1
ClC1=C(Cl)[C@]2(Cl)[C@H]3[C@H]([C@H]4C=C[C@H]3C4)[C@@]1(Cl)C2(Cl)Cl: label 1
Oc1c(I)cc(I)cc1I: label 1
NC(=S)Nc1ccccc1: label 0
O=Cc1cccc(Oc2ccccc2)c1: label 0
ClC(Cl)=C(Cl)C(Cl)=C(Cl)Cl: label 1
Nc1ccc(-c2ccc(N)c(Cl)c2)cc1Cl: label 1
CC(C)CCCCCCOC(=O)c1ccccc1C(=O)OCCCCCCC(C)C: label 0
CCOP(=S)(OCC)Oc1ccc(S(C)=O)cc1 (centres undefined): label 0
CC(C)c1ccc(CO)cc1: label 0

Problem: What classification did O=C(OC1CCCCC1)c1ccccc1C(=O)OC1CCCCC1 end up with in this test?
Solution: label 1

Problem: What classification did BrCCBr end up with in this test?
Solution: label 0

Problem: What classification did CCSC(C)CC1CC(=O)C(C(CC)=NOC/C=C/Cl)=C(O)C1 (centres undefined) end up with in this test?
Solution: label 0

Problem: What classification did COC[C@H](C)N(C(=O)CCl)c1c(C)csc1C end up with in this test?
Solution: label 0

====

Biological target: Nuclear respiratory factor 1 (Homo sapiens)
Experiment: ATG_NRF1_CIS: Attagene CIS-FACTORIAL HepG2 Assay for human Nuclear Respiratory Factor 1 (NRF1) Orphan Gene (AID 2282987)
Details: HepG2 NRF1 cis-element reporter, Attagene multiplex; actives raise or lower the signal
Protocol: ATG_CIS is a cell-based, multiplexed-readout assay that uses HepG2, a human liver cell line, with measurements taken at 24 hours after chemical dosing in a 24-well plate.ATG_NRF1_CIS is one of 52 assay component(s) measured or calculated from the ATG_CIS assay. […] This assay endpoint, ATG_NRF1_CIS, was analyzed with bidirectional fitting relative to DMSO as the negative control and baseline of activity. […]
Activity calls are given as the source filed them. Rule for the calls: active = hit-call score of the fitted dose curve at least 0.9, where 1 is the maximum; inactive = score below 0.9.
// allowed return values: YES (active), NO (inactive)

Here are 2 compounds together with their reported answers.
CCC(C)c1cccc(C(C)CC)c1O (stereo not given): NO
CCCCCCCCC(=O)NCc1ccc(O)c(OC)c1: NO

Problem: What classification did CC1CN1P(=O)(N1CC1C)N1CC1C (stereo not given) end up with in this test?
Solution: NO

Problem: What classification did O=[N+]([O-])c1ccc(O)c([N+](=O)[O-])c1 end up with in this test?
Solution: NO

Problem: What classification did NC(=O)O end up with in this test?
Solution: NO

Problem: What classification did C=CC#N end up with in this test?
Solution: NO

Problem: What classification did COC(=O)Cc1ccccc1 end up with in this test?
Solution: NO

====

test: ATG_E_Box_CIS: Attagene CIS-FACTORIAL HepG2 Assay for human Enhancer Box (E-box) (AID 2282936); conditions: HepG2 E-box cis-reporter transcription, actives raise or lower the signal
Active and inactive are the calls of the source. How the source made its calls: active means hit-call score of the fitted dose curve at least 0.9, where 1 is the maximum; inactive means score below 0.9.
measured-parameter: AC50

Field: example entries. Status: answers known.
CC1(C)CCC(Cc2ccc(Cl)cc2)C1(O)Cn1cncn1 (stereo not given): inactive
CCC[CH2][Sn]([Cl])([Cl])[Cl]: inactive
Oc1c(I)cc(I)cc1I: 4.99 µM (active)
O=C(c1ccccc1)C(Cl)Cl: 10.9 µM (active)
Cc1ccc2ccccc2c1C: inactive

Go through the list and state AC50 for each entry.
1. OCc1ccco1
2. CC(C)(OO)c1ccccc1
3. CCNc1nc(NC(C)(C)C)nc(SC)n1
4. CCC[CH2][Sn]([CH2]CCC)([CH2]CCC)[O]C(=O)c1ccccc1

Solution:
1. inactive
2. 55.2 µM (active)
3. 160 µM (active)
4. inactive

====

read-out: Human Leukocyte Antigen - DR isotype (HLADR), HLA-DRA (gene 3122); experiment: BSK_3C_HLADR: BioMAP Diversity Plus: 3C Assay for Human Leukocyte Antigen - DR isotype (HLADR) Biomarker Activity (AID 2283019); settings: primary human endothelial cells (HUVEC); actives raise or lower the signal
Active and inactive are the calls of the source. How the source made its calls: active means hit-call score of the fitted dose curve at least 0.9, where 1 is the maximum; inactive means score below 0.9.
// allowed return values: YES for active, NO for inactive

Here are 3 compounds together with their reported answers.
COc1cc(OC)nc(NC(=O)NS(=O)(=O)c2ncccc2C(=O)N(C)C)n1: NO
O=C1C2(Cl)C3(Cl)C4(Cl)C(Cl)(Cl)C5(Cl)C3(Cl)C1(Cl)C5(Cl)C24Cl (centres undefined): YES
O=[N+]([O-])c1ccc(O)c([N+](=O)[O-])c1: YES

Problem: What classification did Nc1ccc(-c2ccc(N)c(Cl)c2)cc1Cl end up with in this test?
Solution: YES

Problem: What classification did Oc1cccc2cccnc12 end up with in this test?
Solution: YES

Problem: What classification did CC(C)(OO)c1ccccc1 end up with in this test?
Solution: NO

Problem: What classification did CCSC(C)CC1CC(=O)C(C(CC)=NOC/C=C/Cl)=C(O)C1 (centres undefined) end up with in this test?
Solution: NO

Problem: What classification did CCOP(=S)(OCC)SCCS(=O)(=O)CC end up with in this test?
Solution: NO

Problem: What classification did Cc1ccccc1N end up with in this test?
Solution: NO

====

read-out: Monokine induced gamma interferon (MIG), CXCL9 (gene 4283); assay: BSK_SAg_MIG: BioMAP Diversity Plus: SAg Assay for Monokine induced gamma interferon (MIG) Biomarker Activity (AID 2283092); details: primary human HUVEC with PBMC; actives raise or lower the signal
The source made the active and inactive calls. How the source made its calls: active means hit-call score of the fitted dose curve at least 0.9, where 1 is the maximum; inactive means score below 0.9.
// allowed return values: y for active, n for inactive

Here are 3 compounds together with their reported answers.
COP(=S)(OC)Oc1c(Cl)cc(C)cc1Cl: n
O=S(=O)(c1ccc(Cl)cc1)c1ccc(Cl)cc1: n
ClC(Cl)=C(Cl)C(Cl)=C(Cl)Cl: n

Attention now shifts to the item below.
Problem: What classification did COC(=O)c1sccc1S(=O)(=O)NC(=O)Nc1nc(C)nc(OC)n1 end up with in this test?
Solution: n

====

Assay: ATG_M_61_CIS: Attagene CIS-FACTORIAL HepG2 Assay for M61 Transcription Factor (Internal Marker) (AID 2282937)
Conditions: HepG2 Attagene CIS-FACTORIAL M61 internal marker reporter; actives raise or lower the signal
Procedure: ATG_CIS is a cell-based, multiplexed-readout assay that uses HepG2, a human liver cell line, with measurements taken at 24 hours after chemical dosing in a 24-well plate.ATG_M_61_CIS is one of 52 assay component(s) measured or calculated from the ATG_CIS assay. […] This assay endpoint, ATG_M_61_CIS, was analyzed with bidirectional fitting relative to DMSO as the negative control and baseline of activity. […]
Activity calls are given as the source filed them. The calls were made as follows: active = hit-call score of the fitted dose curve at least 0.9, where 1 is the maximum; inactive = score below 0.9.
measured-parameter: outcome

C=CC#N: inactive
CCOP(=S)(OCC)Oc1ccc(S(C)=O)cc1 (stereo not given): inactive
N#CN=C(N)N: inactive
C[C@H]1CCCC(=O)CCC/C=C/c2cc(O)cc(O)c2C(=O)O1: inactive
C(=NC1CCCCC1)=NC1CCCCC1: inactive
COP(=O)(OC)O/C(=C\Cl)c1cc(Cl)c(Cl)cc1Cl: inactive

Go through the list and state outcome for each entry.
1. CN(C)N=O
2. ClCC(Cl)CCl

Solution:
1. inactive
2. inactive

Go through the list and state outcome for each entry.
1. C=C(C)C(=O)[O][Sn]([CH2]CCC)([CH2]CCC)[CH2]CCC
2. COC[C@H](C)N(C(=O)CCl)c1c(C)csc1C
3. Cc1ccccc1N

Solution:
1. inactive
2. inactive
3. inactive

Go through the list and state outcome for each entry.
1. Cc1ccc(N)cc1Cl
2. CC(C)CCCCCCOC(=O)c1ccccc1C(=O)OCCCCCCC(C)C
3. CCOP(=S)(OCC)SCCS(=O)(=O)CC
4. COc1cc(OC)nc(NC(=O)NS(=O)(=O)c2ncccc2C(=O)N(C)C)n1

Solution:
["inactive", "inactive", "inactive", "inactive"]
